Values from patent US20190112272A1

tested on: ERK 1/2 phosphorylation; assay: Induction of ERK 1/2 phosphorylation (non-genomic response); type: cell-based; details: 95% confidence interval 32.8 nM to 138.8 nM; read-out: mean EC50, ERK 1/2 kinase phosphorylation
MEASURE: EC50

Which EC50 value is on record for CC1=C(/C=C/C(C)=C/C=C/C(C)=C/C(=O)O)C(C)(C)CCC1 [ATRA, all-trans-retinoic acid] ?
67.5 nM

====

Biological target: Cellular Retinoic Acid Binding Protein II (CRABPII) (Homo sapiens, UniProt P29373)
Sequence (P29373 1-138): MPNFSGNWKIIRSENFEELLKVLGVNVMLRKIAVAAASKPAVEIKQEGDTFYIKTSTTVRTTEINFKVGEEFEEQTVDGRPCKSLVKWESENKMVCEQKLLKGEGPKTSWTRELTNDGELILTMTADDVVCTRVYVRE
Experiment: Fluorometric competitive binding titration of DC271 in CRABPII
Details: direct binding of the fluorescent retinoid; read-out: dissociation constant against CRABPII, Kd
MEASURE: Kd (nM)
Entry rule: numbers only, all in nM.

For CC(C)N1CCC(C)(C)c2cc(C#Cc3ccc(C(=O)O)cc3)ccc21 , what is its reported Kd?
49.1

====

test system: retinoic acid response element (RARE) driven LacZ reporter in Sil-15 reporter cells (F9-RARE-lacZ cells); test: RARE-driven LacZ reporter gene assay (genomic response, Sil-15 reporter cells, X-Gal assay); format: cell-based; details: RARE-LacZ reporter; 95% confidence interval 90.7 pM to 391.4 pM; read-out: mean EC50, genomic activation
MEASURE: pEC50
Scale: negative log10 of molar concentration, which is what pEC50 denotes.

For the compound CC1=C(/C=C/C(C)=C/C=C/C(C)=C/C(=O)O)C(C)(C)CCC1 [ATRA, all-trans-retinoic acid] , what pEC50 is on record?
9.72

====

biological target: Cellular Retinoic Acid Binding Protein II (CRABPII) (Homo sapiens, UniProt P29373); assay: Fluorometric competitive binding titration of DC271 in CRABPII; settings: competition with DC271 49.8 nM, CRABPII 75 nM, PBS pH 7.4; one site model
MEASURE: Ki (nM)
Give just the number in nM; leave the unit off.

What measured Ki goes with CC1(C)CCC(C)(C)c2cc(C#Cc3ccc(C(=O)O)cc3)ccc21 [EC23®] ?
3.16
